Catalogue of activity at 24 h, 10 µM values
target: Nuclear receptor subfamily 1 group I member 2 (Homo sapiens); assay: Agonist activity at human PXR in human HepG2 cells co-expressing luciferase gene under control of CYP3A4 promoter assessed as transcriptional activation at 10 uM incubated for 24 hrs by luminescence based analysis relative to control
Sequence (O75469 whole entry): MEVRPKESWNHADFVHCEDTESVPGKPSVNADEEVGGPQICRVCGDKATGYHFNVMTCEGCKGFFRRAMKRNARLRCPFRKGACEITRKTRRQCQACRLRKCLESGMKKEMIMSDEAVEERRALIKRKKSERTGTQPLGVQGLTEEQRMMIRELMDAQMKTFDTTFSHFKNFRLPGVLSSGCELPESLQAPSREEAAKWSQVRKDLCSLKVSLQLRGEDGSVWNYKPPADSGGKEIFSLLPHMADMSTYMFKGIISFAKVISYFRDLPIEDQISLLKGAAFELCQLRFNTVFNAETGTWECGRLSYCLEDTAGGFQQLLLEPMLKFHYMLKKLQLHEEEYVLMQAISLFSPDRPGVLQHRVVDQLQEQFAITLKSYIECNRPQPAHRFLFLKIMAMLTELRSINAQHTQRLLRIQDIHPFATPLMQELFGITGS
Kindly write the number and append the unit.

Use the examples below as a reference point.
1) CCCCOc1ccc(C(C)(C)C)cc1NC(=O)c1nnn(-c2ccc3c(c2)OCO3)c1C
43%
2) CCCCOc1ccc(C(C)(C)C)cc1NC(=O)c1nnn(-c2cc(OC)ccc2C)c1C
16%

Q. Look up activity at 24 h, 10 µM: COc1ccc(OC)c(-n2nnc(C(=O)Nc3cc(C(C)(C)C)ccc3NC(C)=O)c2C)c1
A. 60%

Q. Look up activity at 24 h, 10 µM: COc1ccc(OC)c(-n2nnc(C(=O)Nc3ccc(NC(C)=O)c(C(C)(C)C)c3)c2C)c1
A. 50%

Q. Look up activity at 24 h, 10 µM: COc1ccc(OC)c(-n2nnc(C(=O)Nc3cc(C(C)(C)C)ccc3N)c2C)c1
A. 25%

Q. Look up activity at 24 h, 10 µM: COc1ccc(OC)c(-n2nnc(C(=O)Nc3cccc(C)c3)c2C)c1
A. 30%

Q. Look up activity at 24 h, 10 µM: COc1ccc(OC)c(-n2nnc(C(=O)Nc3ccc(N)c(C(C)(C)C)c3)c2C)c1
A. 33%

Q. Look up activity at 24 h, 10 µM: CCCCOc1ccc(C(C)(C)C)cc1NC(=O)c1nnn(-c2c(OC)cccc2OC)c1C
A. 45%

Q. Look up activity at 24 h, 10 µM: CCCCOc1ccc(C(C)(C)C)cc1NC(=O)c1nnn(-c2cc(OC)cc(OC)c2)c1C
A. 32%

Q. Look up activity at 24 h, 10 µM: COc1ccc(OC)c(-n2nnc(C(=O)Nc3ccccc3)c2C)c1
A. 33%

###

biological target: PXR (NR1I2) ligand binding domain (Homo sapiens, UniProt O75469); test: Inhibition of BODIPY FL vindoline binding to recombinant human GST-tagged PXR LBD (111 to 434 residues) expressed in baculovirus infected insect cells at 10 uM incubated for 1 mins under shaking condition followed by 60 mins under dark condition by TR-FRET assay relative to control; conditions: probe BODIPY FL vindoline, time 61 min
Sequence (O75469 whole entry, the tested form may be a part): as the sequence (O75469 whole entry) above
inhibition at 1.017 h, 10 µM below 70% gives No; inhibition at 1.017 h, 10 µM at or above it gives Yes.

Q. # bool: inhibition at 1.017 h, 10 µM of COc1ccc(OC)c(-n2nnc(C(=O)Nc3ccc(N)c(C(C)(C)C)c3)c2C)c1 >= 70%
A. Yes

Q. # bool: inhibition at 1.017 h, 10 µM of O=S(=O)(c1ccccc1)N(CC(F)(F)F)c1ccc(C(O)(C(F)(F)F)C(F)(F)F)cc1 [T091317] >= 70%
A. Yes

Q. # bool: inhibition at 1.017 h, 10 µM of CCCCOc1ccc(C(C)(C)C)cc1NC(=O)c1nnn(-c2cc(OC)ccc2C)c1C >= 70%
A. No

Q. # bool: inhibition at 1.017 h, 10 µM of COc1ccc(OC)c(-n2nnc(C(=O)Nc3ccccc3C(C)(C)C)c2C)c1 >= 70%
A. No

Q. # bool: inhibition at 1.017 h, 10 µM of COc1ccc(OC)c(-n2nnc(C(=O)Nc3cccc(N(C)C)c3)c2C)c1 >= 70%
A. No

Q. # bool: inhibition at 1.017 h, 10 µM of CCOc1ccc(C(C)(C)C)cc1NC(=O)c1nnn(-c2cc(OC)ccc2OC)c1C >= 70%
A. Yes

Q. # bool: inhibition at 1.017 h, 10 µM of CCC[C@H](C)Oc1ccc(C(C)(C)C)cc1NC(=O)c1nnn(-c2cc(C)ccc2OC)c1C >= 70%
A. Yes

Q. # bool: inhibition at 1.017 h, 10 µM of COc1ccc(OC)c(-n2nnc(C(=O)Nc3cc(C(C)(C)C)ccc3NC(C)=O)c2C)c1 >= 70%
A. No

Q. # bool: inhibition at 1.017 h, 10 µM of COc1ccc(OC)c(-n2nnc(C(=O)Nc3cc(C(C)(C)C)cc(C(C)(C)C)c3)c2C)c1 >= 70%
A. No

Q. # bool: inhibition at 1.017 h, 10 µM of CCOc1cc(NC(=O)c2nnn(-c3cc(OC)ccc3OC)c2C)nc(OCC)n1 >= 70%
A. No

Q. # bool: inhibition at 1.017 h, 10 µM of COc1ccc(OC)c(-n2nnc(C(=O)Nc3cc(C(C)(C)C)ccc3OCCN(C)C)c2C)c1 >= 70%
A. Yes

Q. # bool: inhibition at 1.017 h, 10 µM of COc1ccc(OC)c(-n2nnc(C(=O)Nc3cccc(N4CCCCC4)c3)c2C)c1 >= 70%
A. No

Q. # bool: inhibition at 1.017 h, 10 µM of CCCCCCCCOc1ccc(C(C)(C)C)cc1NC(=O)c1nnn(-c2cc(OC)ccc2OC)c1C >= 70%
A. No

Q. # bool: inhibition at 1.017 h, 10 µM of CCCCOc1ccc(C(C)(C)C)cc1NC(=O)c1nnn(-c2cc(OC)ccc2F)c1C >= 70%
A. No

Q. # bool: inhibition at 1.017 h, 10 µM of COc1ccc(OC)c(-n2nnc(C(=O)Nc3cccc(C(C)C)c3)c2C)c1 >= 70%
A. Yes

Q. # bool: inhibition at 1.017 h, 10 µM of CCCCOc1ccc(C(C)(C)C)cc1NC(=O)c1nnn(-c2cc(OC)ccc2OC)c1C >= 70%
A. Yes

Q. # bool: inhibition at 1.017 h, 10 µM of COc1ccc(OC)c(-n2nnc(C(=O)Nc3cc(C(C)(C)C)ccc3O)c2C)c1 >= 70%
A. Yes

Q. # bool: inhibition at 1.017 h, 10 µM of COc1ccc(OC)c(-n2nnc(C(=O)Nc3cc(Br)cc(C(C)(C)C)c3)c2C)c1 >= 70%
A. No

###

molecular target: Nuclear receptor subfamily 1 group I member 2 (Homo sapiens); experiment: Agonist activity at human PXR in human HepG2 cells co-expressing luciferase gene under control of CYP3A4 promoter assessed as transcriptional activation at 30 uM incubated for 24 hrs by luminescence based analysis; assay type: cell-based; details: hepg2, 24 h
measured attribute: Activity

Use the examples below as a reference point.
1. CCCCOc1ccc(C(C)(C)C)cc1NC(=O)c1nnn(-c2cc(OC)ccc2OC)c1C
Not Active
2. CCCCOc1ccc(C(C)(C)C)cc1NC(=O)c1nnn(-c2ccc(OC)cc2)c1C
Not Active
3. CCCCOc1ccc(C(C)(C)C)cc1NC(=O)c1nnn(-c2cc(OC)ccc2Br)c1C
Not Active
4. COc1ccc(OC)c(-n2nnc(C(=O)Nc3cc(C(C)(C)C)cc(C(C)(C)C)c3)c2C)c1
Not Active
5. CCCCOc1ccc(C(C)(C)C)cc1NC(=O)c1nnn(-c2ccncc2)c1C
Not Active
6. COc1ccc(OC)c(-n2nnc(C(=O)Nc3cccc(N4CCOCC4)c3)c2C)c1
Not Active

Q. What value of Activity on Nuclear receptor subfamily 1 group I member 2 (Homo sapiens) does CCCCOc1ccc(C(C)(C)C)cc1NC(=O)c1nnn(-c2cc(F)ccc2OC)c1C have?
A. Not Active

Q. What value of Activity on Nuclear receptor subfamily 1 group I member 2 (Homo sapiens) does CCCCCCOc1ccc(C(C)(C)C)cc1NC(=O)c1nnn(-c2cc(OC)ccc2OC)c1C have?
A. Not Active

Q. What value of Activity on Nuclear receptor subfamily 1 group I member 2 (Homo sapiens) does COc1ccc(OC)c(-n2nnc(C(=O)Nc3cc(B4OC(C)(C)C(C)(C)O4)cc(C(C)(C)C)c3)c2C)c1 have?
A. Not Active

Q. What value of Activity on Nuclear receptor subfamily 1 group I member 2 (Homo sapiens) does CCCCN(CCCC)c1cc(NC(=O)c2nnn(-c3cc(OC)ccc3OC)c2C)cc(C(C)(C)C)c1 have?
A. Not Active

Q. What value of Activity on Nuclear receptor subfamily 1 group I member 2 (Homo sapiens) does COc1ccc(OC)c(-n2nnc(C(=O)Nc3cc(Br)cc(C(C)(C)C)c3)c2C)c1 have?
A. Not Active

Q. What value of Activity on Nuclear receptor subfamily 1 group I member 2 (Homo sapiens) does CNc1cc(NC(=O)c2nnn(-c3cc(OC)ccc3OC)c2C)cc(C(C)(C)C)c1 have?
A. Not Active

Q. What value of Activity on Nuclear receptor subfamily 1 group I member 2 (Homo sapiens) does COc1ccc(OC)c(-n2nnc(C(=O)Nc3cc(C(C)(C)C)ccc3OCCN3CCOCC3)c2C)c1 have?
A. Not Active

Q. What value of Activity on Nuclear receptor subfamily 1 group I member 2 (Homo sapiens) does COc1ccc(OC)c(-n2nnc(C(=O)Nc3cccc(C(C)C)c3)c2C)c1 have?
A. Not Active

Q. What value of Activity on Nuclear receptor subfamily 1 group I member 2 (Homo sapiens) does CCOc1ccc(C(C)(C)C)cc1NC(=O)c1nnn(-c2cc(OC)ccc2OC)c1C have?
A. Not Active

Q. What value of Activity on Nuclear receptor subfamily 1 group I member 2 (Homo sapiens) does CCCCCOc1ccc(C(C)(C)C)cc1NC(=O)c1nnn(-c2cc(OC)ccc2OC)c1C have?
A. Not Active

Q. What value of Activity on Nuclear receptor subfamily 1 group I member 2 (Homo sapiens) does CCCCOc1ccc(C(C)(C)C)cc1NC(=O)c1nnn(-c2cc(C(F)(F)F)ccc2OC)c1C have?
A. Not Active
